Measured pSTAT5 ratio YT CD25/YT, dilution factor 64, lower table values are reported for all entries that follow.
- target: T1, human high affinity trimeric IL-2 receptor (CD25/CD122/CD132) (human, UniProt P01589 22-272; P14784 27-551; P31785 23-369)
- T1 sequence 1: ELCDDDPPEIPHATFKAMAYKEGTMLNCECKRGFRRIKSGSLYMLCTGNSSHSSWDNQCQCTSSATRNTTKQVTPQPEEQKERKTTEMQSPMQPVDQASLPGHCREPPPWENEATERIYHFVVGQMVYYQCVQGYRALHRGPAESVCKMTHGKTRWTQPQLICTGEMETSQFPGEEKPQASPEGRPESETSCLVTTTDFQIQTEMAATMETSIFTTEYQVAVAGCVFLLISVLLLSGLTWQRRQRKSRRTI
- T1 sequence 2: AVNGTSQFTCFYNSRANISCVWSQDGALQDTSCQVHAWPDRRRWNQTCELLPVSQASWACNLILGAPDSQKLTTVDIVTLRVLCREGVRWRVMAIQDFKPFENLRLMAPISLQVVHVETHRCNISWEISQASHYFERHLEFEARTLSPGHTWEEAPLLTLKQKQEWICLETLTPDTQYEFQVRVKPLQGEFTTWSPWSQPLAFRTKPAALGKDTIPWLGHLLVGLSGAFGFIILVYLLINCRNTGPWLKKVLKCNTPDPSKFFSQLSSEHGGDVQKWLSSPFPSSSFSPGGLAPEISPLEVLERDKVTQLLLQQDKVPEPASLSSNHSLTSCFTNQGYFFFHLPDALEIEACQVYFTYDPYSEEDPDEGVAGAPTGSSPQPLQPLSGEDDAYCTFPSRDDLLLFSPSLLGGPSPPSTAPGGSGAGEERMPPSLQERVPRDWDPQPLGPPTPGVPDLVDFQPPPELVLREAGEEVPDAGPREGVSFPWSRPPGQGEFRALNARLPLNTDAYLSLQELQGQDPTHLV
- T1 sequence 3: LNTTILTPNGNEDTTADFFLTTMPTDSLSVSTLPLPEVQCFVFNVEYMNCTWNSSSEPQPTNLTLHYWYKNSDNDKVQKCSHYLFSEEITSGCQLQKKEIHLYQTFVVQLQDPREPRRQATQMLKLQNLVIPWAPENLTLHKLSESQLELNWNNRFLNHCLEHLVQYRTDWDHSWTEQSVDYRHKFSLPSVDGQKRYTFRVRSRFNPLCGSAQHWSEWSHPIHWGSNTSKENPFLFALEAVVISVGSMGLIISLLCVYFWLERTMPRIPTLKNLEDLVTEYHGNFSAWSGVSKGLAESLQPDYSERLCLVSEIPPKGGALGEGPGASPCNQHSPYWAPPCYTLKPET
- assay.method.text: cell-based or functional assay

# example entries with known answers
binder | reported
RFH (ligand) cytokine: APTSSSTKKTQLQLEHLRLDLFMILNGINNYKNPKLTRMLTFKFYMPKKATELKHLQCLEEELKPLEEVLNLAQSKNFHLRPRDLISNINVIVLELKGSETTFMCEYADETATIVEFLNRWITFCHSIISTLT | 7.4
NEH (ligand) cytokine: APTSSSTKKTQLQLEHLNLDLEMILNGINNYKNPKLTRMLTFKFYMPKKATELKHLQCLEEELKPLEEVLNLAQSKNFHLRPRDLISNINVIVLELKGSETTFMCEYADETATIVEFLNRWITFCHSIISTLT | 7.9
RMH (ligand) cytokine: APTSSSTKKTQLQLEHLRLDLMMILNGINNYKNPKLTRMLTFKFYMPKKATELKHLQCLEEELKPLEEVLNLAQSKNFHLRPRDLISNINVIVLELKGSETTFMCEYADETATIVEFLNRWITFCHSIISTLT | 3.9

Req: Please list pSTAT5 ratio YT CD25/YT, dilution factor 64, lower table recorded for the binder RYH (ligand) cytokine: APTSSSTKKTQLQLEHLRLDLYMILNGINNYKNPKLTRMLTFKFYMPKKATELKHLQCLEEELKPLEEVLNLAQSKNFHLRPRDLISNINVIVLELKGSETTFMCEYADETATIVEFLNRWITFCHSIISTLT
Resp: 11.8

The measurements presented in this section are drawn from patent US20210275641A1.
